assay target: UniProt P31652
method summary: In vitro affinity at the 5-HT reuptake site using [3H]paroxetine as radioligand in rat frontal cortex membranes
Would you mind telling me the reported pKi of each entry?
Field pKi (float): negative decimal logarithm of the concentration in molar.

q: Form field: pKi recorded for C[C@H]1C[C@H](c2cc3c(F)cccc3s2)CCN1C[C@H](O)COc1cccc2[nH]ccc12 with UniProt P31652 (enter value)
a: 8.94

q: Same question, C[C@H]1C[C@H](c2cc3cc(F)ccc3s2)CCN1C[C@H](O)COc1cccc2[nH]ccc12 this time
a: 9.41

q: Same question, COc1ccc2cc([C@@H]3CCN(C[C@H](O)COc4cccc5[nH]ccc45)[C@@H](C)C3)sc2c1 this time
a: 8.96

q: Same question, Cc1cc(C)c2cc([C@@H]3CCN(C[C@H](O)COc4cccc5[nH]ccc45)[C@@H](C)C3)sc2c1 this time
a: 8.71

q: Same question, C[C@H]1C[C@H](c2cc3ccc(Cl)cc3s2)CCN1C[C@H](O)COc1cccc2[nH]ccc12 this time
a: 8.96

q: Same question, C[C@H]1C[C@H](c2cc3c(Cl)cccc3s2)CCN1C[C@H](O)COc1cccc2[nH]ccc12 this time
a: 9.16

q: Same question, C[C@H]1C[C@H](c2cc3ccc(F)cc3s2)CCN1C[C@H](O)COc1cccc2[nH]ccc12 this time
a: 9.51

q: Same question, Cc1ccc2cc([C@@H]3CCN(C[C@H](O)COc4cccc5[nH]ccc45)[C@@H](C)C3)sc2c1 this time
a: 8.65

###

assay target: 5-hydroxytryptamine receptor 1A (Homo sapiens, UniProt P08908)
Sequence (P08908 whole entry): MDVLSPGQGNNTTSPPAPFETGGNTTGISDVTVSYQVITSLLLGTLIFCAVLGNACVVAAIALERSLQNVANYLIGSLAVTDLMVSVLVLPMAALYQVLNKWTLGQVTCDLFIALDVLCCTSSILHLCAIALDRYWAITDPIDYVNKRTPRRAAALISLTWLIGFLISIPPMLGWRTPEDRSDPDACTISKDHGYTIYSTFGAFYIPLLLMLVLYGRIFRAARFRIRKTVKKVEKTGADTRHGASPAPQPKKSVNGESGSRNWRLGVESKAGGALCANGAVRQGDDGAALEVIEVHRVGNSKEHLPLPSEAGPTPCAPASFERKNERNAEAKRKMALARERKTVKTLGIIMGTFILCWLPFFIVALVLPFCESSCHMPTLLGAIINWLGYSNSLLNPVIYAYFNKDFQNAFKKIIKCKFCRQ
method summary: Inhibition of 5-HT induced [35S]GTP-gamma-S, binding at human cloned 5-HT 1A receptors.
Assay type: functional
recorded metric: pKi
Field pKi (float): negative decimal logarithm of the concentration in molar.

q: # get_value(readout='pKi', item= Cc1cccc2sc([C@@H]3CCN(C[C@H](O)COc4cccc5[nH]ccc45)[C@@H](C)C3)cc12 )
a: 8.06

q: Same question, COc1ccc2sc([C@@H]3CCN(C[C@H](O)COc4cccc5[nH]ccc45)[C@@H](C)C3)cc2c1OC this time
a: 9.01

q: Same question, C[C@H]1C[C@H](c2cc3cccc(F)c3s2)CCN1C[C@H](O)COc1cccc2[nH]ccc12 this time
a: 8.37

q: Same question, C[C@H]1C[C@@H](c2cc3cc(F)ccc3s2)CCN1C[C@H](O)COc1cccc2[nH]ccc12 this time
a: 7.78

q: Same question, C[C@H]1C[C@H](c2cc3cc(Cl)ccc3s2)CCN1C[C@H](O)COc1cccc2[nH]ccc12 this time
a: 8.28

q: Same question, C[C@H]1C[C@H](c2cc3ccc(Cl)cc3s2)CCN1C[C@H](O)COc1cccc2[nH]ccc12 this time
a: 7.93

q: Same question, C[C@H]1C[C@H](c2cc3c(F)cccc3s2)CCN1C[C@H](O)COc1cccc2[nH]ccc12 this time
a: 8.31

###

assay target: 5-hydroxytryptamine receptor 1A (Homo sapiens, UniProt P08908)
method summary: In vitro binding affinity at 5-hydroxytryptamine 1A receptor by [3H]8-OH-DPAT displacement.
Would you mind telling me the reported Ki of each entry?
State just the number; it will be interpreted in nM.

q: # get_value(readout='Ki', item= C[C@H]1C[C@H](c2cc3cc(Cl)ccc3s2)CCN1C[C@H](O)COc1cccc2[nH]ccc12 )
a: 8.34

q: Same question, C[C@@H]1C[C@H](c2cc3cc(F)ccc3s2)CCN1C[C@H](O)COc1cccc2[nH]ccc12 this time
a: 8.77

q: Same question, C[C@@H]1C[C@@H](c2cc3cc(F)ccc3s2)CCN1C[C@H](O)COc1cccc2[nH]ccc12 this time
a: 11.7

q: Same question, Cc1cccc2sc([C@@H]3CCN(C[C@H](O)COc4cccc5[nH]ccc45)[C@@H](C)C3)cc12 this time
a: 6.85

q: Same question, C[C@H]1C[C@H](c2cc3cc(F)ccc3s2)CCN1C[C@H](O)COc1cccc2[nH]ccc12 this time
a: 6.4

q: Same question, Cc1cc(C)c2cc([C@@H]3CCN(C[C@H](O)COc4cccc5[nH]ccc45)[C@@H](C)C3)sc2c1 this time
a: 94.9

q: Same question, C[C@H]1C[C@@H](c2cc3cc(F)ccc3s2)CCN1C[C@H](O)COc1cccc2[nH]ccc12 this time
a: 36.8

q: Same question, COc1ccc2sc([C@@H]3CCN(C[C@H](O)COc4cccc5[nH]ccc45)[C@@H](C)C3)cc2c1OC this time
a: 1.3

q: Same question, COc1cccc2sc([C@@H]3C[C@H]4CC[C@@H](C3)N4C[C@H](O)COc3cccc4[nH]ccc34)cc12 (stereo in doubt; exo) this time
a: 15.7

q: Same question, O[C@H](COc1cccc2[nH]ccc12)CN1[C@@H]2CC[C@H]1C[C@H](c1cc3ccccc3s1)C2 this time
a: 30.5

q: Same question, COc1ccc2cc([C@@H]3CCN(C[C@H](O)COc4cccc5[nH]ccc45)[C@@H](C)C3)sc2c1 this time
a: 14.5

q: Same question, C[C@H]1C[C@H](c2cc3ccccc3s2)CCN1C[C@H](O)COc1cccc2[nH]ccc12 this time
a: 3.09

q: Same question, C[C@H]1C[C@H](c2cc3cccc(F)c3s2)CCN1C[C@H](O)COc1cccc2[nH]ccc12 this time
a: 21.9

q: Same question, C[C@H]1C[C@H](c2cc3c(C(F)(F)F)cccc3s2)CCN1C[C@H](O)COc1cccc2[nH]ccc12 this time
a: 24.2

q: Same question, C[C@H]1C[C@H](c2cc3ccc(F)cc3s2)CCN1C[C@H](O)COc1cccc2[nH]ccc12 this time
a: 5.52

q: Same question, C[C@H]1C[C@H](c2cc3ccc(Cl)cc3s2)CCN1C[C@H](O)COc1cccc2[nH]ccc12 this time
a: 24.8

###

Would you mind telling me the reported Stimulation of each entry?
assay target: UniProtKB P08908
method summary: Stimulation of binding of [35S]GTP-gamma-S, to G protein mediated by human cloned 5-hydroxytryptamine 1A receptor tested in vitro at 1 uM.
Format: functional
State just the number; it will be interpreted in %.

q: # get_value(readout='Stimulation', item= COc1ccc2sc([C@@H]3CCN(C[C@H](O)COc4cccc5[nH]ccc45)[C@@H](C)C3)cc2c1OC )
a: 8.38

q: Same question, C[C@H]1C[C@H](c2cc3cccc(F)c3s2)CCN1C[C@H](O)COc1cccc2[nH]ccc12 this time
a: 2.66

q: Same question, C[C@H]1C[C@H](c2cc3ccccc3s2)CCN1C[C@H](O)COc1cccc2[nH]ccc12 this time
a: 6.32

q: Same question, C[C@H]1C[C@H](c2cc3cc(Cl)ccc3s2)CCN1C[C@H](O)COc1cccc2[nH]ccc12 this time
a: 3.97

q: Same question, C[C@H]1C[C@@H](c2cc3cc(F)ccc3s2)CCN1C[C@H](O)COc1cccc2[nH]ccc12 this time
a: 3.24

q: Same question, COc1cccc2sc([C@H]3CCN(C[C@H](O)COc4cccc5[nH]ccc45)[C@@H](C)C3)cc12 this time
a: 1.38

q: Same question, COc1cccc2sc([C@@H]3CCN(C[C@H](O)COc4cccc5[nH]ccc45)[C@H](C)C3)cc12 this time
a: 1.2

q: Same question, COc1cccc2sc([C@@H]3C[C@H]4CC[C@@H](C3)N4C[C@H](O)COc3cccc4[nH]ccc34)cc12 (stereo in doubt; exo) this time
a: 7.22

###

assay target: Sodium-dependent serotonin transporter (Rattus norvegicus, UniProt P31652)
Sequence (P31652 whole entry): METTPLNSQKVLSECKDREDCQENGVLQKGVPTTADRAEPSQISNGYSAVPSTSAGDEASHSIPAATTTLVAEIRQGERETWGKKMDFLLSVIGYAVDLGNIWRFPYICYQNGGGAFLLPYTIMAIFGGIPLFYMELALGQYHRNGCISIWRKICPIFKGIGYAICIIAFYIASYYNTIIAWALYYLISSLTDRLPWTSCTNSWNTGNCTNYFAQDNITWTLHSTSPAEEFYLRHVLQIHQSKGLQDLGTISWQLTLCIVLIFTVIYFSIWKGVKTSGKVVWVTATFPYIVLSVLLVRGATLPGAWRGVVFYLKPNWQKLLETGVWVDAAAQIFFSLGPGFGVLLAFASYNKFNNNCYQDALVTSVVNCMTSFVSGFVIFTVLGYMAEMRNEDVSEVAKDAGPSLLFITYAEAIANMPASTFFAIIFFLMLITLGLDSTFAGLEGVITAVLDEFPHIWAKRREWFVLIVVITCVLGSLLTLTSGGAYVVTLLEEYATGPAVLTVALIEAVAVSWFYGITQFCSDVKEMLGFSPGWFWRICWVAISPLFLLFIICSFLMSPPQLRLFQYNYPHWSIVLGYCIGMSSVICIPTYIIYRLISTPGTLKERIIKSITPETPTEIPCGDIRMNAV
method summary: In vitro affinity at the 5-HT reuptake site using [3H]paroxetine as radioligand in rat frontal cortex membranes
Would you mind telling me the reported pKi of each entry?
Field pKi (float): negative decimal logarithm of the concentration in molar.

q: # get_value(readout='pKi', item= C[C@H]1C[C@H](c2cc3cccc(F)c3s2)CCN1C[C@H](O)COc1cccc2[nH]ccc12 )
a: 8.46

q: Same question, C[C@H]1C[C@H](c2cc3c(C(F)(F)F)cccc3s2)CCN1C[C@H](O)COc1cccc2[nH]ccc12 this time
a: 8.46

q: Same question, COc1cccc2sc([C@@H]3C[C@H]4CC[C@@H](C3)N4C[C@H](O)COc3cccc4[nH]ccc34)cc12 (stereo in doubt; endo) this time
a: 9.77

q: Same question, Cc1cccc2sc([C@@H]3CCN(C[C@H](O)COc4cccc5[nH]ccc45)[C@@H](C)C3)cc12 this time
a: 9.36
